test.name: Phase I study CXR1002-001: plasma pharmacokinetics (LC-MS/MS)
Format: in vivo, human
condition: human, plasma, oral, 1200 mg, Patient 034, 1200 mg, person, plasma, 168 hr (Day 8); read-out: Concentration
measured.endpoint: concentration at 168 hr
Kindly format the answer as number then unit.

I would be grateful if you could share the reported concentration at 168 hr for "O=C(O)C(F)(F)C(F)(F)C(F)(F)C(F)(F)C(F)(F)C(F)(F)C(F)(F)F" .
351 µM

* * *

test.name: Phase I study CXR1002-001: plasma pharmacokinetics (LC-MS/MS)
Format: in vivo, human
condition: human, plasma, oral, 50 mg, Patient 001 Dose 50 mg; 696 hr (Day 29); read-out: Concentration
measured.endpoint: concentration at 696 h (µM)
Number only, in µM; omit the unit.

I would be grateful if you could share the reported concentration at 696 h for "O=C(O)C(F)(F)C(F)(F)C(F)(F)C(F)(F)C(F)(F)C(F)(F)C(F)(F)F" .
10.2
